assayed-target: PDE10A enzyme (Homo sapiens)
Construct: made in house; host or cells: E. coli BL21(DE3)
protocol-details: PDE10A inhibition assay, SPA
Type: biochemical
study-conditions: column head 2,1334003; unit inferred, nM
result-type: log10 of IC50 (log10 of the value in nM)
Quick note: numbers are log10 of IC50, with nM as the unit.

stdin: API: value(readout= log10 of IC50, system= PDE10A enzyme (Homo sapiens), query= COc1cc2c(N3CCNC(c4ccc5ccccc5c4)C3)nc(C)c(C#N)c2cc1OC (centres unmarked) [Compound 33] )
stdout: 3.32

stdin: And the next one, COc1cccc(C2CN(c3ncc(C#N)c4cc(OC)c(OC)cc34)CCN2)c1 (centres unmarked) [Compound 2] ?
stdout: 2.51

stdin: And the next one, COc1ccc(C2CN(c3nc(C)c(C#N)c4cc(OC)c(OC)cc34)CCN2)cc1 (centres unmarked) [Compound 32] ?
stdout: 2.46

stdin: And the next one, COc1ccc(OC)c(C2CN(c3nc(C)c(C#N)c4cc(OC)c(OC)cc34)CCN2)c1 (centres unmarked) [Compound 36] ?
stdout: 2.98

stdin: And the next one, COc1ccc([C@H]2CN(c3ncc(C#N)c4cc(OC)c(OC)cc34)CCN2)cc1 [Compound 62] ?
stdout: 1.67

stdin: And the next one, COc1cc2c(C#N)cnc(N3CCNC(c4ccc(C(F)(F)F)cc4)C3)c2cc1OC (centres unmarked) [Compound 13] ?
stdout: 2.20

stdin: And the next one, COc1cc2c(C#N)cnc(N3CCNC(c4cc(Cl)ccc4Cl)C3)c2cc1OC (centres unmarked) [Compound 14] ?
stdout: 2.81

stdin: And the next one, COc1cc2c(C#N)cnc(N3CCNC(c4cccc5ccccc45)C3)c2cc1OC (centres unmarked) [Compound 4] ?
stdout: 1.89

stdin: And the next one, COc1cc2c(N3CCNC(c4ccc(F)cc4)C3)nc(C)c(C#N)c2cc1OC (centres unmarked) [Compound 41] ?
stdout: 3.08

stdin: And the next one, COc1cc2c(C#N)cnc(N3CCN[C@@H](c4ccccc4)C3)c2cc1OC [Compound 44] ?
stdout: 2.61

stdin: And the next one, COc1cc2c(C#N)cnc(N3CCNC(c4ccccc4OC)C3)c2cc1OC (centres unmarked) [Compound 6] ?
stdout: 2.62

stdin: And the next one, COc1cc(OC)cc(C2CN(c3nc(C)c(C#N)c4cc(OC)c(OC)cc34)CCN2)c1 (centres unmarked) [Compound 35] ?
stdout: 2.85

stdin: And the next one, COc1cc2c(C#N)cnc(N3CCNC(c4ccc5c(c4)OCCO5)C3)c2cc1OC (centres unmarked) [Compound 66] ?
stdout: 2.11

stdin: And the next one, COc1ccc2cc(C3CN(c4ncc(C#N)c5cc(OC)c(OC)cc45)CCN3)ccc2c1 (centres unmarked) [Compound 28] ?
stdout: 2.52

stdin: And the next one, COc1cc2c(C#N)cnc(N3CCNC(c4ccc5ccccc5c4)C3)c2cc1OC (centres unmarked) [Compound 10] ?
stdout: 1.86

stdin: And the next one, COc1cc2c(C#N)cnc(N3CCNC(c4cc(F)c(Cl)cc4Cl)C3)c2cc1OC (centres unmarked) [Compound 17] ?
stdout: 3.00

stdin: And the next one, COc1cc2c(N3CCN[C@H](c4ccccc4)C3)nc(C)c(C#N)c2cc1OC [Compound 40] ?
stdout: 2.72

* * *

assayed-target: PDE10A enzyme (Homo sapiens)
Construct: made in house; host or cells: E. coli BL21(DE3)
protocol-details: PDE10A inhibition assay, SPA
Type: biochemical
study-conditions: column head 2,1334003; unit inferred, nM
Mark each entry criterion met if its IC50 sits below 700 nM, and criterion not met for all others.

stdin: Dear colleague, could you confirm whether IC50 of COc1ccc(C2CN(c3ncc(C#N)c4cc(OC)c(OC)cc34)CCN2)c(OC)c1 (centres unmarked) falls below 700 nM? Thanks.
stdout: criterion not met

stdin: And the next one, COc1cc2c(C#N)cnc(N3CCOC(c4ccc(C)cc4)C3)c2cc1OC (centres unmarked) ?
stdout: criterion met

stdin: And the next one, CCOc1ccc(C2CN(c3ncc(C#N)c4cc(OC)c(OC)cc34)CCN2)c(C)c1 (centres unmarked) ?
stdout: criterion not met

stdin: And the next one, COc1cc2c(C#N)cnc(N3CCNC(c4cccc(Cl)c4)C3)c2cc1OC (centres unmarked) ?
stdout: criterion met

stdin: And the next one, COc1cccc(C2CN(c3ncc(C#N)c4cc(OC)c(OC)cc34)CCN2)c1 (single isomer, unassigned; (+)) [Compound 23] ?
stdout: criterion not met

stdin: And the next one, COc1cc2c(C#N)cnc(N3CCNC(c4ccc(N5CCOCC5)cc4)C3)c2cc1OC (centres unmarked) ?
stdout: criterion met

stdin: And the next one, COc1ccc(C2CN(c3ncc(C#N)c4cc(OC)c(OC)cc34)CCN2)c(C)c1 (centres unmarked) ?
stdout: criterion met

* * *

assayed-target: PDE10A enzyme (Homo sapiens)
Construct: made in house; host or cells: E. coli BL21(DE3)
protocol-details: PDE10A inhibition assay, SPA
Type: biochemical
study-conditions: column head 2,1334003; unit inferred, nM
Procedure: Active PDE10A enzyme is prepared in a number of ways for use in PDE assays (Loughney, K. et al. Gene 1999, 234, 109-117; Fujishige, K. et al. Eur J Biochem. 1999, 266, 1118-1127 and Soderling, S. et al. Proc. Natl. Acad. Sci. 1999, 96, 7071-7076). PDE10A can be expressed as full-length proteins or as truncated proteins, as long as they express the catalytic domain. PDE10A can be prepared in different cell types, for example insect cells or E. coli. […]
result-type: IC50 (nM)
Numbers only here, please. The scale is nM.

stdin: What value of measured IC50 is listed for COc1cc2c(C#N)cnc(N3CCNC(c4ccc(Cl)cc4Cl)C3)c2cc1OC (stereo not shown) ?
stdout: 520

stdin: And the next one, COc1ccc(C2CN(c3nc(C)c(C#N)c4cc(OC)c(OC)cc34)CCO2)cc1 (stereo not shown) ?
stdout: 930

stdin: And the next one, COc1cc2c(C#N)cnc(N3CCNC(c4ccc(C)cc4)C3)c2cc1OC (stereo not shown) ?
stdout: 300

stdin: And the next one, COc1ccc(C2CN(c3ncc(C#N)c4cc(OC)c(OC)cc34)CCN2)cc1Cl (stereo not shown) ?
stdout: 81

* * *

assayed-target: PDE10A enzyme (Homo sapiens, UniProt Q9Y233)
Construct: made in house; host or cells: E. coli BL21(DE3)
Sequence (Q9Y233 716-1055): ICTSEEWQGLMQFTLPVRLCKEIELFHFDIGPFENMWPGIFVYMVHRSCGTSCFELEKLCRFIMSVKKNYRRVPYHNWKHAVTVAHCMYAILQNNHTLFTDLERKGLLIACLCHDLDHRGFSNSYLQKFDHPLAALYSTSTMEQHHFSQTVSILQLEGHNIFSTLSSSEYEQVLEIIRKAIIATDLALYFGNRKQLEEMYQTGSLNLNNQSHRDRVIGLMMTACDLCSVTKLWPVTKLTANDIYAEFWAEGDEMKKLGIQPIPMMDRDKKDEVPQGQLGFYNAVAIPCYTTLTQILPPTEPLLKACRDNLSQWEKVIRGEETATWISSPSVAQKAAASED
protocol-details: PDE10A inhibition assay, SPA
Assay type: biochemical
study-conditions: column head 2,1334003; unit inferred, nM
Protocol: Active PDE10A enzyme is prepared in a number of ways for use in PDE assays (Loughney, K. et al. Gene 1999, 234, 109-117; Fujishige, K. et al. Eur J Biochem. 1999, 266, 1118-1127 and Soderling, S. et al. Proc. Natl. Acad. Sci. 1999, 96, 7071-7076). PDE10A can be expressed as full-length proteins or as truncated proteins, as long as they express the catalytic domain. PDE10A can be prepared in different cell types, for example insect cells or E. coli. […]
result-type: IC50
Write your answer as a measured quantity: the number, then the unit.

stdin: What value of measured IC50 is listed for COc1cc2c(C#N)cnc(N3CCN(C)C(c4ccc(C)cc4)C3)c2cc1OC (centres unmarked) ?
stdout: 350 nM

stdin: And the next one, COc1cc(OC)cc(C2CN(c3ncc(C#N)c4cc(OC)c(OC)cc34)CCN2)c1 (centres unmarked) ?
stdout: 41 nM

stdin: And the next one, "COc1ccc([C@@H]2CN(c3ncc(C#N)c4cc(OC)c(OC)cc34)CCN2)cc1" ?
stdout: 1200 nM

stdin: And the next one, COc1ccc(C2CN(c3ncc(C#N)c4cc(OC)c(OC)cc34)CCN2)cc1F (centres unmarked) ?
stdout: 36 nM

stdin: And the next one, COc1cc2c(C#N)cnc(N3CCNC(c4ccc(OC(C)C)cc4)C3)c2cc1OC (centres unmarked) ?
stdout: 530 nM

stdin: And the next one, "COc1cc2c(N3CCN[C@@H](c4ccccc4)C3)nc(C)c(C#N)c2cc1OC" ?
stdout: 460 nM

stdin: And the next one, COc1cc2c(C#N)cnc(N3CCNC(c4ccc(OC(C)C)c(C)c4)C3)c2cc1OC (centres unmarked) ?
stdout: 870 nM

stdin: And the next one, COc1ccc(C2CN(c3ncc(C#N)c4cc(OC)c(OC)cc34)CCN2)cc1 (centres unmarked) ?
stdout: 54 nM

Reference source for all entries: patent US7858620B2
